# TARGET_OF_ASSAY: T1, murine CD22 protein (ACROBiosystems, SI2-M52Ha) (murine, UniProt P35329 22-708)
# T1 construct: extracellular domain; also called murine CD22-ECD; murine CD22-ECD-His
# T1 sequence (looked up): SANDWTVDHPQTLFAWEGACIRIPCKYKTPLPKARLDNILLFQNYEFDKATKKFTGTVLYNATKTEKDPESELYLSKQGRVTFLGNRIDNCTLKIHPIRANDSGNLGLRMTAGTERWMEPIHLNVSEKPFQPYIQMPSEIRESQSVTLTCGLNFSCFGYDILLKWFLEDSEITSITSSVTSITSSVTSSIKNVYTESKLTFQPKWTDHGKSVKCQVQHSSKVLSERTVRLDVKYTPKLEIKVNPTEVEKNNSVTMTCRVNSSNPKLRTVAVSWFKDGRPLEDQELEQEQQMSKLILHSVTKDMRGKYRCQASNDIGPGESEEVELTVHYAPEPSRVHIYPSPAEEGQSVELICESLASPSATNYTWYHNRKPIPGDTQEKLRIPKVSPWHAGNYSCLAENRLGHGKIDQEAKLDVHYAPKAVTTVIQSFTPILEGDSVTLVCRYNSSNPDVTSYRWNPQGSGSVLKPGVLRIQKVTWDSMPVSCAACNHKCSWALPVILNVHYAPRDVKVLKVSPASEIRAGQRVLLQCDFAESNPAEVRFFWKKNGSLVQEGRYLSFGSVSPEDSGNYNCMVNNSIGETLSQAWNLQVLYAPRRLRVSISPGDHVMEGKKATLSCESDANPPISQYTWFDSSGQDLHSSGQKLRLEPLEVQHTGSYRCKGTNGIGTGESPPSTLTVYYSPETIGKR
# RUN_DESCRIPTION: ELISA, coated murine CD22, 0.01 nM Ab
What OD450 was measured for each of the following?
Give bare numbers, in OD450.

Some binders with known OD450 results, for comparison:
{"BINDER": "F1.231.15 human-murine chimeric antibody (antibody, human IgG1, V domains shown, Chimeric: murine V regions on human IgG1 heavy constant region and kappa light constant region) VH: QVQLQQPGAELVKPGASVKLSCKTSGYTFTIYWMQWVKQRPGRGLEWIGRIDPHSGDTHYNENFTTKVTLTVDETSNTAYMHLSGLTSEDSAVYYCARRDYSYYVLDYWGQGTSVTVSS VL: DVVLTQTPLSLPVSLGDQASISCRSSQSLVHINGDTYLHWYLQKPGQSPKLLIYTVFNRFSGVPDRFSGSGSGTDFTLKISRVEAEDLGAYFCSQSTHVPYTFGGGTKLEIKR", "UNIT_OF_MEASURE": "OD450", "OD450": 0.05}
{"BINDER": "F2.104.10 human-murine chimeric antibody (antibody, human IgG1, lambda, V domains shown, Chimeric, human IgG1 / lambda) VH: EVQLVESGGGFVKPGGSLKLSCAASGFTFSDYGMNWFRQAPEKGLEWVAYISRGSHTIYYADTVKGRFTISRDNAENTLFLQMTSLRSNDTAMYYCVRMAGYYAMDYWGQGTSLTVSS VL: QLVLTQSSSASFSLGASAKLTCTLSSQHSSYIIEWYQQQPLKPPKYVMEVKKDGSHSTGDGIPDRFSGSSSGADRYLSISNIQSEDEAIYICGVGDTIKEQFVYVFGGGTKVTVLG", "UNIT_OF_MEASURE": "OD450", "OD450": 0.07}

Note: attention shifts to another entry.
Exam item: May I ask what OD450 has been recorded for F1.17.1 human-murine chimeric antibody (antibody, human IgG1, kappa, V domains shown, Chimeric, human IgG1 / kappa) VH: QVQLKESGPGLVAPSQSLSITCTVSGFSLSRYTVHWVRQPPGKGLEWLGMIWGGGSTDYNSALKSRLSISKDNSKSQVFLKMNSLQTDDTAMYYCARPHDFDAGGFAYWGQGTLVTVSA VL: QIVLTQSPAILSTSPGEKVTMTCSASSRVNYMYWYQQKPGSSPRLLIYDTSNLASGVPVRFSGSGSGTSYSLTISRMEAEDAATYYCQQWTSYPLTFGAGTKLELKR ?
Marked response: 0.05

Hey, just so you know, these numbers are from patent US20240084003A1.
